system: U2OS; assay: Multiplex assay against U2OS; type: toxicity, cell-based; details: human, 24 h, 10 µM, compound concentration 10 uM, replicate 1
assay_metric: Population Mitochondria Different-Phenotype (%)
Field: numeric (%). Do not append units.

* O=c1[nH]c2ccccc2n1C1CCN(Cc2ccc(-c3[nH]c4cc5ncnc5cc4nc3-c3ccccc3)cc2)CC1 | 91
* Cc1cccc(CN2CCN(C(c3ccccc3)c3ccc(Cl)cc3)CC2)c1.Cl.Cl (centres undefined) | 65
* C=CC(=O)Nc1cccc(Sc2nc(Nc3ccc(N4CCN(C)CC4)cc3)ncc2Cl)c1 | 13

Turning now to a further compound:
**Query** Could you share which Population Mitochondria Different-Phenotype (%) value was measured for `CC(C)NC(=O)N1CC[C@H](NC2=Nc3cc(F)ccc3N(CC(F)F)c3ccc(Cl)cc32)C1` ?
**Result** 61
